test: Blood levels of penciclovir in Pekin ducks after oral dosing with penciclovir or famciclovir; format: in vivo; settings: duck, 5 mg/kg, 30 min, sample collected at 32 min, oral famciclovir 5 mg/kg, Duck No. 117
endpoint label: concentration at 32 min (µM)
Record the value in µM, omitting the unit from your answer.

Task item: I'd like to know its concentration at 32 min. The compound in question is CC(=O)OCC(CCn1cnc2cnc(N)nc21)COC(C)=O
Reply: 8.4

###

assay: Blood levels of penciclovir in Pekin ducks after oral dosing with penciclovir or famciclovir; type: in vivo; conditions: duck, 100 mg/kg, 0-6 hr, oral penciclovir 100 mg/kg, Duck No. 163, read-out: AUC (area under the 0-6 hr. concentration/time curve) of penciclovir in blood
endpoint label: AUC at 6 h
Param answer (str): number followed by unit.

Task item: Requested read-out: AUC at 6 h. Entry: Nc1nc2c(ncn2CCC(CO)CO)c(=O)[nH]1
Reply: 95 µM·h
